Provenance of the data: the supplement of paper PMC6555819

- Tested on: PPARg:RXRa (NR concentration 180 nM, RXRa partner concentration 90 nM)
- Test summary: PBM binding z-score (relative to random genomic background probes); higher = stronger binding; sequences stand for … in GC…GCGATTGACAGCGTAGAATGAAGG
Below, each of the sequences is paired with its reported PBM binding z-score value.
Could you respond with only the numeric value?

These solved cases illustrate the format of a correct answer.
Prompt: # value lookup — system PPARg:RXRa (NR concentration 180 nM, RXRa partner concentration 90 nM), readout PBM binding z-score, item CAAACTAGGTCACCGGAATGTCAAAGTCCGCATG
Completion: 8.97

Prompt: Can you look up PBM binding z-score on PPARg:RXRa (NR concentration 180 nM, RXRa partner concentration 90 nM) for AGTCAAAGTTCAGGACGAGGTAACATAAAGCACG ?
Completion: 4.84

More entries:
Prompt: Record lookup: for PPARg:RXRa (NR concentration 180 nM, RXRa partner concentration 90 nM), what PBM binding z-score belongs to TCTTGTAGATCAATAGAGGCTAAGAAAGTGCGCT ?
Completion: -0.238

Prompt: What PBM binding z-score appears in the records for this sequence with PPARg:RXRa (NR concentration 180 nM, RXRa partner concentration 90 nM)? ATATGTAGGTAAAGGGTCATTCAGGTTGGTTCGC
Completion: 11.1

Prompt: Field: PBM binding z-score (PPARg:RXRa (NR concentration 180 nM, RXRa partner concentration 90 nM)). Entry: TCTTGTAGATCAACCGGAGGTTAAGAAAGATCGA
Completion: -0.257

Prompt: Param readout = PBM binding z-score; param system = PPARg:RXRa (NR concentration 180 nM, RXRa partner concentration 90 nM); param query = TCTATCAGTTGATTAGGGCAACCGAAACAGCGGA ; response: value
Completion: 0.346

###

- System: RXRa DBDmut IVT, anti-RXR (DBD mutation: RXRa K156A/R161A, NR concentration 90 nM)
- Test summary: PBM binding z-score (relative to random genomic background probes); higher = stronger binding; sequences stand for … in GC…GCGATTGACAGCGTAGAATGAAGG
Assign y to entries whose PBM binding z-score meets or exceeds 0.9; assign n to the rest.

Prompt: In plain terms: is recorded PBM binding z-score at least 0.9 for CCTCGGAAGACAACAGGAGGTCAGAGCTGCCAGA ?
Completion: n

Prompt: Dear colleague, could you confirm whether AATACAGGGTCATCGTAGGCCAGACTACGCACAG has PBM binding z-score at or above 0.9?
Completion: y

Prompt: Evaluate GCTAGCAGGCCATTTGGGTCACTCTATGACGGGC : PBM binding z-score at minimum 0.9?
Completion: n

Prompt: Check the entry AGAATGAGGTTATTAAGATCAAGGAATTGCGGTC : does PBM binding z-score equal or exceed 0.9?
Completion: y

Prompt: Reported PBM binding z-score at or above 0.9? ACTTACGAGTCAACGAGGTTATAGCACGCGTATA
Completion: n

###

- System: PXR homodimer (NR concentration 270 nM)
- Test summary: PBM binding z-score (relative to random genomic background probes); higher = stronger binding; sequences stand for … in GC…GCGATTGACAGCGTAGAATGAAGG
Please mark Condition met if the recorded PBM binding z-score is equal to or greater than 0.9, and Condition not met if it falls below.

Some solved entries appear below for comparison.
Prompt: Is PBM binding z-score at least 0.9? Consider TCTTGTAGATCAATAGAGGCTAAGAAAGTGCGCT
Completion: Condition not met

Prompt: Given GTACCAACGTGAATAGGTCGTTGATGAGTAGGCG , state whether its PBM binding z-score is at least 0.9.
Completion: Condition not met

Prompt: Threshold query (PBM binding z-score >= 0.9) on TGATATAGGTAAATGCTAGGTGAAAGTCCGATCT
Completion: Condition not met

Prompt: Kindly determine if PBM binding z-score recorded for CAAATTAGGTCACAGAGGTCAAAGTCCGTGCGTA is above or exactly 0.9.
Completion: Condition met

Prompt: Given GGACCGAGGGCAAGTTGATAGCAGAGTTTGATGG , state whether its PBM binding z-score is at least 0.9.
Completion: Condition not met

Attention now turns to another entry.
Prompt: Entry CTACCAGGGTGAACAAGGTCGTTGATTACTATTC : is its PBM binding z-score no less than 0.9?
Completion: Condition met

###

- System: LXRb:RXRa (NR concentration 270 nM, RXRa partner concentration 90 nM)
- Test summary: PBM binding z-score (relative to random genomic background probes); higher = stronger binding; sequences stand for … in GC…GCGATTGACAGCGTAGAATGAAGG
Catalogue of PBM binding z-score readings, one per entry.
The answer should be written as a number, with no unit following it.

Please review the entries below; each comes with its answer.
Prompt: What PBM binding z-score value was documented for this sequence, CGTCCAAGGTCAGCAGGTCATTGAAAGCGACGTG ?
Completion: 3.86

Prompt: # lookup: PBM binding z-score of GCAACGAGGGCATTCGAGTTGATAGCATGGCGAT
Completion: 0.0313

Prompt: Dear colleague, I am looking for the recorded PBM binding z-score of the following sequence: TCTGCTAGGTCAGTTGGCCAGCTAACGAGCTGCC
Completion: -0.127

Prompt: Which PBM binding z-score value is on record for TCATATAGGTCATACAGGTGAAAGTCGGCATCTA ?
Completion: 4.49

Prompt: Which PBM binding z-score is listed for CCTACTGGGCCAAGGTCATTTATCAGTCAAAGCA ?
Completion: 3.53

Prompt: Returns the measured PBM binding z-score for the input sequence. Input: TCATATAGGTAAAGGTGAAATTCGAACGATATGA
Completion: 1.14

Prompt: What value of PBM binding z-score has been reported for the following sequence? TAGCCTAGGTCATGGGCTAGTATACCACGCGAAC
Completion: 1.86

Prompt: What value of measured PBM binding z-score is listed for AGAATGAGGGTATACGTAGATCAGGGAAGAAAGT ?
Completion: -0.0551

***
Prompt: Field request: PBM binding z-score | item: TTACCAAGGTGAAGGTCGTCGATCCCTCTGTAGA
Completion: 1.09

Prompt: Give the measured PBM binding z-score of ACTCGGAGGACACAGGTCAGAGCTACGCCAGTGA .
Completion: 0.96

###

- System: LXRa homodimer (NR concentration 270 nM)
- Test summary: PBM binding z-score (relative to random genomic background probes); higher = stronger binding; sequences stand for … in GC…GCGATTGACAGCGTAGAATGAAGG
The label depends only on PBM binding z-score: yes (1) if it is at least -0.07, no (0) if it is smaller.

Check out these entries, answers already filled in.
Prompt: Decide: PBM binding z-score of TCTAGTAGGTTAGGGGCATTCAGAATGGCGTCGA >= -0.07?
Completion: yes (1)

Prompt: I'd appreciate it if you could say whether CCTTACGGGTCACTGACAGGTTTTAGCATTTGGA has PBM binding z-score at least equal to -0.07.
Completion: no (0)

Prompt: Determine whether measured PBM binding z-score meets or exceeds -0.07 for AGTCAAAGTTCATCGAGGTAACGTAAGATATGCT
Completion: yes (1)

Prompt: Quick check: does GCGACTGGGGCACAGCAGGTTACCATAAGGTTGG have PBM binding z-score greater than or equal to -0.07?
Completion: no (0)

Prompt: Could you tell me if the measured PBM binding z-score of TCATATAGGTAATGGTGAAAGTCGAACGATATGA reaches -0.07 or more?
Completion: yes (1)

Now take the following sequence into account.
Prompt: Evaluate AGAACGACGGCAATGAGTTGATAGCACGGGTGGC : PBM binding z-score at minimum -0.07?
Completion: no (0)

###

- Test system: PPARg DBDmut:RXRa IVT, anti-PPARg (DBD mutation: PPARg1 K132A/R137A, NR concentration 270 nM, RXRa partner concentration 90 nM)
- Test summary: PBM binding z-score (relative to random genomic background probes); higher = stronger binding; sequences stand for … in GC…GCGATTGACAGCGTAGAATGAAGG
Metric name: PBM binding z-score
Provide a numeric answer; units are not to be included.

Recorded results for 5 sequences are shown here.
Prompt: May I ask what PBM binding z-score has been recorded for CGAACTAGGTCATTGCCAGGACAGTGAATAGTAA ?
Completion: 1.34

Prompt: Which PBM binding z-score value belongs to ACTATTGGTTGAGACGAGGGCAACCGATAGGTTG ?
Completion: 0.379

Prompt: Name the reported PBM binding z-score value associated with the sequence CCTTACGGGTCACTCCAGGTTATGGCATCGGAGT
Completion: -0.451

Prompt: Which PBM binding z-score reading was recorded for the sequence CGTCCAAGGTCATAGGAGGCCAGTGAAGACAGAT ?
Completion: 0.813

Prompt: I'd like to know its PBM binding z-score. The sequence in question is AGTCAAAGTTCACTAGGTAACGAAAGATTCAGCT
Completion: 0.953

Now examine the next entry.
Prompt: Query: PBM binding z-score; subject: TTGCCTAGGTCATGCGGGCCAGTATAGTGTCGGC
Completion: 0.433
